Tested on: LPS-induced PBMCs
Assay: Inflammatory cytokine release from LPS-induced PBMCs (Luminex)
Type: cell-based, human
Settings: fold change from LPS-treated PBMCs; compounds 10 μM (DEX 1 μg/ml) 2 h, then LPS 0.1 μg/ml 24 h; negative = reduced
For each record, check the reported MCP-1: if it is below -5 fold change write 1 (yes), else write 0 (no).

Look over these answered cases.
- Compound: "CCCCCCC(C)(C)c1cc(O)c2c(c1)OC(C)(C)[C@@H]1CC=C(C(=O)NC3CC(F)(F)C3)C[C@@H]21"
  Class: "1 (yes)"
- Compound: "CCCCCCC(C)(C)c1cc(O)c2c(c1)OC(C)(C)[C@@H]1CC=C(C(=O)NC(C)C)C[C@@H]21"
  Class: "0 (no)"
- Compound: "CCCCCCC(C)(C)c1cc(O)c2c(c1)OC(C)(C)[C@@H]1CC=C(C(=O)NC3(C(F)(F)F)CC3)C[C@@H]21"
  Class: "0 (no)"

In the record for CCCC(C)(C)c1cc(O)c2c(c1)OC(C)(C)[C@@H]1CC=C(C(=O)O)C[C@@H]21 , is MCP-1 less than -5 fold change?
0 (no)

Please give the result for C[C@@H]1C[C@H]2[C@@H]3CCC4=CC(=O)C=C[C@]4(C)[C@@]3(F)[C@@H](O)C[C@]2(C)[C@@]1(O)C(=O)CO [DEX, dexamethasone, reference compound] too.
0 (no)

Please give the result for CCCCCCC(C)(C)c1cc(O)c2c(c1)OC(C)(C)[C@@H]1CC=C(C(=O)NC(C)(C)CCO)C[C@@H]21 too.
1 (yes)

* * *

List of EC50 values.
Target: CB1 receptor (Homo sapiens, UniProt P21554)
Sequence (P21554 whole entry): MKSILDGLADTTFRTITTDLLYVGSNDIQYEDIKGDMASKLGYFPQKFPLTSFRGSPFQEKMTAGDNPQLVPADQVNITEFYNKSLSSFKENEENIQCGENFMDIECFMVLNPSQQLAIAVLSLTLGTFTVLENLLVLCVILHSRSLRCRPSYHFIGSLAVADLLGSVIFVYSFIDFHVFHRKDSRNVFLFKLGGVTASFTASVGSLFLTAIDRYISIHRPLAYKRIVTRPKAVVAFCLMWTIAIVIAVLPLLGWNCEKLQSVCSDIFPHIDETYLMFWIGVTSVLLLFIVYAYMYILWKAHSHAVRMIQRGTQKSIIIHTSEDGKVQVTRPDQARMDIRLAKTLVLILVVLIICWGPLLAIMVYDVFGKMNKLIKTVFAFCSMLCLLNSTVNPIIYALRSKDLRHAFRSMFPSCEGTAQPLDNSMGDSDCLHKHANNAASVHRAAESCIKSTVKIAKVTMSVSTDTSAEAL
Test: cell-based
Design: host or cells: PathHunter cell lines
Conditions: PathHunter agonist mode; read-out: CB1 Activity (β-Arrestin)

Below are worked cases with known answers.
- Item smiles: "CCCCC(C)(C)c1cc(O)c2c(c1)OC(C)(C)[C@@H]1CC=C(C(=O)O)C[C@@H]21"
  Result value: "> 3 µM"
- Item smiles: "CCCCCCC(C)(C)c1cc(O)c2c(c1)OC(C)(C)[C@@H]1CC=C(C(=O)NCCC(=O)O)C[C@@H]21"
  Result value: "> 3 µM"
- Item smiles: "CCCC(C)(C)c1cc(O)c2c(c1)OC(C)(C)[C@@H]1CC=C(C(=O)NC3(C(F)(F)F)CC3)C[C@@H]21"
  Result value: "> 3 µM"
- Item smiles: "CCCCCCC(C)(C)c1cc(O)c2c(c1)OC(C)(C)[C@@H]1CC=C(C(=O)NC(CO)CO)C[C@@H]21"
  Result value: "> 3 µM"

// query EC50 value for entry CCCCCCC(C)(C)c1cc(O)c2c(c1)OC(C)(C)[C@@H]1CC=C(C(=O)NC3CCCCC3)C[C@@H]21
> 3 µM

Please give the result for CCCCCCC(C)(C)c1cc(O)c2c(c1)OC(C)(C)[C@@H]1CC=C(C(=O)NCCO)C[C@@H]21 too.
0.62 µM

* * *

Assay: Pharmacokinetics after IV dose in mice
Conditions: mouse, in vivo; 1 mg/kg IV, male C57BL/6 mice
List of half-life values.
Answer with a number only, understood to be in h.

- Molecule: "CCCCCCC(C)(C)c1cc(O)c2c(c1)OC(C)(C)[C@@H]1CC=C(C(=O)OC(C)C)C[C@@H]21"
  half-life [h]: 4.89
- Molecule: "CCCCCCC(C)(C)c1cc(O)c2c(c1)OC(C)(C)[C@@H]1CC=C(C(=O)NC(C)(C)CCO)C[C@@H]21"
  half-life [h]: 1.74
- Molecule: "CCCCCCC(C)(C)c1cc(O)c2c(c1)OC(C)(C)[C@@H]1CC=C(C(=O)O)C[C@@H]21 [AJA, reference compound]"
  half-life [h]: 1.41

// query half-life value for entry CCCCCCC(C)(C)c1cc(O)c2c(c1)OC(C)(C)[C@@H]1CC=C(C(=O)NC[C@H](O)CO)C[C@@H]21
2.39

Please give the result for CCCCCCC(C)(C)c1cc(O)c2c(c1)OC(C)(C)[C@@H]1CC=C(C(=O)NC[C@@H](O)CO)C[C@@H]21 too.
3.99
